Entry source: patent US8871753B2

# ASSAYED_TARGET: human JAK3 (a.a. 781-1124) (Homo sapiens)
# Construct: JAK3 (a.a. 781-1124); His tag (N); made in house; host or cells: insect cells (baculovirus)
# Sequence (P52333 781-1124): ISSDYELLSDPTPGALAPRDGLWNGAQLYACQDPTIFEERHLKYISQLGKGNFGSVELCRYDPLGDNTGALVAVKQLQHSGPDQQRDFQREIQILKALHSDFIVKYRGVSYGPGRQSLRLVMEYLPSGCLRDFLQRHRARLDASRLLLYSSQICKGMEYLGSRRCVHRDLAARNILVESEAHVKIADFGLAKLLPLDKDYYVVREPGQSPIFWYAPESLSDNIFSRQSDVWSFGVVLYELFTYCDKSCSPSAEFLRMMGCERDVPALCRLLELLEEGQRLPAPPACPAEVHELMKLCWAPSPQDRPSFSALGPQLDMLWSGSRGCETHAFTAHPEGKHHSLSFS
# TEST_DESCRIPTION: In vitro JAK kinase assay (HTRF, phosphorylation of a biotinylated peptide), JAK3
# Assay type: biochemical
# REPORTED_CONDITIONS: method AA1 (3 μM ATP) or AA2 (1000 μM ATP), not stated per value
Counter-ions that a name gives are not always drawn.
Record form. Attribute: pIC50. Fill in for each entry.
Just the number, please; pIC50 means minus log10 of the concentration in mol/L.

Value of pIC50 reported for the compound O=C(COc1cc2cc(c1)Nc1nc(ncc1Cl)Nc1cccc(c1)CC2)Nc1ccccc1 [Example A24, trifluoroacetate] is 7.24

Short answer for NCCC(=O)Nc1ccc2cc1CCc1cccc(c1)Nc1ncc(Cl)c(n1)N2 [Example A108, bis(trifluoroacetate)] : pIC50 was 7.59
